Target: T1, HTRA3, P83110
T1 sequence (P83110 354-453, limits assumed, looked up): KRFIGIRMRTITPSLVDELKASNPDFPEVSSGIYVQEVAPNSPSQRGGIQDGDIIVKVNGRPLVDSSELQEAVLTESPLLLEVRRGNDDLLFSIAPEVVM
Experiment: holdup assay
Design: key: below the threshold = too weak to quantify, mostly under pKd 3.1 to 4
Details: plain residues with an end cap or a label only (N-terminal biotin on a linker: ado-ado)
Quick list: pKd per entry.

# binder, pKd
measured = [
    ("MQILSKPEFI [NPSR1, Q6W5P4]", 4.61),
    ("NISARRFTLC [FAM167B, Q9BTA0]", 4.54),
    ("PALKNGQYWV [CSPG4, Q6UVK1]", 5.46),
    ("NKSEPFLTWL [WWTR1, Q9GZV5]", 5.43),
    ("RSPVATATSC [DUSP5, Q16690]", 3.89),
]

Values were extracted from paper PMC9482650.
